Cited source for all entries: patent US10125134B2

# assay-target: KRas G12C (Homo sapiens, UniProt P01116, C118S/C51S/C80L/G12C)
# test-protocol: KRas G12C Modification Assay (LCMS detection of covalent adduct)
# Type: binding
# condition: normalized percent of control; tested at 5 μM concentration for 3 hours
reported-property: POC

molecule="C=CC(=O)N1CCN(c2nc(OC[C@@H]3C[C@@H](OC)CN3C)nc3c2CCN(c2cccc4ccccc24)C3)CC1CC#N (stereo partly drawn) [Example 268]" reported_property=POC endpoint_result="C (“C”>50% POC)"
molecule=C=CC(=O)N1CCN(c2nc(OC[C@H]3CCCN3CC)nc3c2CCN(c2cccc4ccccc24)C3)C[C@@H]1CC#N reported_property=POC endpoint_result="C (“C”>50% POC)"
molecule=CN1CCC[C@H]1COc1nc2c(c(N3CCN(C(=O)/C=C/CN4CCCC4)[C@@H](CC#N)C3)n1)CCN(c1cccc(Cl)c1C(F)(F)F)C2 reported_property=POC endpoint_result="C (“C”>50% POC)"
